Readings of GI50 for the listed molecules
# System: A549
# Procedure Text: NCI tumour cell line growth inhibition, 48 h
Activity calls are given as the source filed them. Rule as the data show it: active = GI50 up to about 1.1 µM and inactive = higher.
Test Readout: GI50

molecule=O=C1C=CC(=O)C1(Br)Br study_target=A549 result="13.8 µM (inactive)"
molecule="Cc1c(N)nc([C@H](CC(N)=O)NC[C@H](N)C(N)=O)nc1C(=O)N[C@H](C(=O)N[C@H](C)[C@@H](O)CC(=O)N[C@H](C(=O)NC(O[C@@H]1O[C@@H](C)[C@@H](N)[C@@H](O)[C@H]1O)C(O)c1nc(-c2nc(C(=O)NCCC[S+](C)C)cs2)cs1)[C@@H](C)O)[C@H](O[C@@H]1O[C@@H](CO)[C@@H](O)[C@H](O)[C@@H]1O[C@H]1O[C@H](CO)[C@@H](O)[C@H](OC(N)=O)[C@@H]1O)c1c[nH]cn1 (some centres not stated)" study_target=A549 result="19.7 µM (inactive)"
molecule="NC12CCC(CC1=O)C2 (configuration not stated)" study_target=A549 result="> 100 µM (inactive)"
molecule=OC(CC(CC(O)(C(F)(F)Cl)C(F)(F)Cl)=NNc1ccccc1)(C(F)(F)Cl)C(F)(F)Cl study_target=A549 result="3.41 µM (inactive)"
molecule=Cc1cc2nc(N3C(=O)/C(=C/c4cccc([N+](=O)[O-])c4)N=C3c3ccccc3)sc2cc1C study_target=A549 result="36.1 µM (inactive)"
molecule="CC1(Cc2ccccc2)NC(=S)NC1=O (configuration not stated)" study_target=A549 result="> 100 µM (inactive)"
molecule=CS(=O)(=O)OCCN(CCOS(C)(=O)=O)c1ccc(/C=N/c2ccc3oc(=O)ccc3c2)cc1 study_target=A549 result="3.47 µM (inactive)"
